assay system: UniProt Q93009
assay notes: Binding affinity to USP7 (unknown origin) by T2 relaxation experiment based analysis
quantity kind: pKd
// scale note: pKd = -log10(conc_M); give the bare number

## Task Dear colleague, I am looking for the recorded pKd of the following compound: `CC(=O)Nc1nc2ccccn2c1-c1ccc(O)cc1`
## Result 3.27

====

assay system: Ubiquitin carboxyl-terminal hydrolase 7 (Homo sapiens, UniProt Q93009)
Sequence (Q93009 whole entry, the tested form may be a part): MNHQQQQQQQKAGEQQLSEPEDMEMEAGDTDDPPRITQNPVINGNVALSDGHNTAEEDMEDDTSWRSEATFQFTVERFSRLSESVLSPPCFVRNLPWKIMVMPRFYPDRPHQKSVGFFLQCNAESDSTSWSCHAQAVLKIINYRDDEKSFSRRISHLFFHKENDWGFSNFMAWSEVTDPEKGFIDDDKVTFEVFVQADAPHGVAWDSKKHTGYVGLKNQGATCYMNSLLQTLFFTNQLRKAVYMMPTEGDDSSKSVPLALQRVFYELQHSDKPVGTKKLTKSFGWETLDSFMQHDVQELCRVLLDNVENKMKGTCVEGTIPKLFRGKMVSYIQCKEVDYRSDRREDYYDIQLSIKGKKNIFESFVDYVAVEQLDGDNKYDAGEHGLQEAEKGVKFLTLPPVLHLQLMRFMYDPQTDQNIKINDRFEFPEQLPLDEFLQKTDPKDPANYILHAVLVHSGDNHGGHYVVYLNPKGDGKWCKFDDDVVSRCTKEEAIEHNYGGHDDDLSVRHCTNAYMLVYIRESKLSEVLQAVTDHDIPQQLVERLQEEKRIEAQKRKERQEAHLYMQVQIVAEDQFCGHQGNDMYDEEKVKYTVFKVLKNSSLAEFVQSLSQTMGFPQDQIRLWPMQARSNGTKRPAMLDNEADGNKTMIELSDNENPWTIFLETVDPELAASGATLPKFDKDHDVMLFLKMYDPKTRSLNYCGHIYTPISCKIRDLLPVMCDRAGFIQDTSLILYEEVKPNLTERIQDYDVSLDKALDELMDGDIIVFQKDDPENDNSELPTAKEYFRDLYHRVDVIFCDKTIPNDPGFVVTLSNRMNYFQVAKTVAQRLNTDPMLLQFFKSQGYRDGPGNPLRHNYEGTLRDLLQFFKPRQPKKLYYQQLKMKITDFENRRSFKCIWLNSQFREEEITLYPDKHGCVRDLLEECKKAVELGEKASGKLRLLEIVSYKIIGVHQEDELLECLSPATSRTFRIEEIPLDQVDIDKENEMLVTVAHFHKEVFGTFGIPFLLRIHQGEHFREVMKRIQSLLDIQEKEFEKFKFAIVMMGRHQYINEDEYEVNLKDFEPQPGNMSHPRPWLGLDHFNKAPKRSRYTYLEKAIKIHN
assay notes: Inhibition of recombinant human His-tagged USP7 (208 to 560 residues) expressed in Hi-five Sf9 cells using monoubiquitinated ubiquitin-rhodamine as substrate incubated for 1 hr by fluorescence based assay
quantity kind: pIC50
// scale note: pIC50 = -log10(conc_M); give the bare number

## Task Dear colleague, I am looking for the recorded pIC50 of the following compound: `O=C(C[C@@H](C(F)F)n1ccc(F)n1)N1CCC(O)(Cn2cnc3c(cnn3-c3ccc(F)cc3)c2=O)CC1`
## Result 7.28

====

assay system: Ubiquitin carboxyl-terminal hydrolase 7 (Homo sapiens)
assay notes: Inhibition of recombinant human C-terminal His-tagged N-terminal GST-tagged full length USP7 using di-ubiquitin as substrate preincubated for 10 mins followed by substrate addition and measured after 60 mins by TR-FRET assay
quantity kind: pIC50
// scale note: pIC50 = -log10(conc_M); give the bare number

## Task Dear colleague, I am looking for the recorded pIC50 of the following compound: `CCc1c(-c2ccc(C(=O)NC)nc2)cnc(N)c1-c1ccc(O)cc1`
## Result 5.89

====

assay system: Ubiquitin carboxyl-terminal hydrolase 7 (Homo sapiens)
assay notes: Inhibition of recombinant full length USP7 (unknown origin) using di-ubiquitin as substrate by fluorescence based assay
# pIC50 annotations
// scale note: pIC50 = -log10(conc_M); give the bare number

record smiles	pIC50
COc1ccc(-c2c(N)nc3ccccn23)cc1	4.42
Cc1ccn2c(-c3ccc(O)cc3)c(N)nc2c1	4.57
CC(C)Nc1nc2ccccn2c1-c1ccc(O)cc1	5.10
Nc1nc2ccccn2c1-c1ccc(O)cc1	4.62

## Task Dear colleague, I am looking for the recorded pIC50 of the following compound: `CNc1nc2ccccn2c1-c1ccc(O)cc1`
## Result 4.80

## Task And `CN(C)c1nc2ccccn2c1-c1ccc(O)cc1` ?
## Result 4.62

## Task And `Cc1cccn2c(-c3ccc(O)cc3)c(N)nc12` ?
## Result 5.06

====

assay system: Ubiquitin carboxyl-terminal hydrolase 7 (Homo sapiens)
assay notes: Inhibition of recombinant full length USP7 (unknown origin) using di-ubiquitin as substrate by fluorescence based assay
# IC50 annotations

Known IC50 results, listed for orientation:
record smiles	IC50
Nc1nc2cc(C(F)(F)F)ccn2c1-c1ccc(O)cc1	42 µM
CC(=O)Nc1nc2ccccn2c1-c1ccc(O)cc1	34 µM
Nc1nc2ccc(C(F)(F)F)cn2c1-c1ccc(O)cc1	48 µM

## Task Dear colleague, I am looking for the recorded IC50 of the following molecule: `Nc1nc2c(C(F)(F)F)cccn2c1-c1ccc(O)cc1`
## Result 26 µM

## Task And `Nc1nc2cc(C3CCNCC3)ccn2c1-c1ccc(O)cc1` ?
## Result 5.3 µM

## Task And `Cc1ccc2nc(N)c(-c3ccc(O)cc3)n2c1` ?
## Result 39 µM
